# Assay notes: relative permittivity at various frequencies (dimensionless); xn = mol fraction of the nth substance listed
# Condition notes: 298.2 K; 101.3 kPa; Liquid; Frequency=0.1 MHz; Wayne Kerr model 6425B Digibridge; x2 = 0.1
For each of the compounds below, state its relative permittivity.
Give bare numbers.

Take a look at these entries with their results.
Input: I'd like to know its relative permittivity. The compound in question is CCCCC(CC)CO (centres undefined) [2-ethyl-1-hexanol] + CC(C)(C)O
Output: 7.685

Input: I'd like to know its relative permittivity. The compound in question is C1CCCCC1 [cyclohexane] + CCCCO
Output: 2.683

Input: I'd like to know its relative permittivity. The compound in question is C1CCCCC1 [cyclohexane] + CCO
Output: 2.155

Next:
Input: I'd like to know its relative permittivity. The compound in question is CCCCC(CC)CO (centres undefined) [2-ethyl-1-hexanol] + CCCCO
Output: 8.21

---

# Assay notes: relative permittivity at various frequencies (dimensionless)
# Condition notes: 298.2 K; 101.3 kPa; Liquid; Frequency=0.01 MHz; Wayne Kerr model 6425B Digibridge
Measured parameter: relative permittivity
Answers are plain numbers.

Take a look at these entries with their results.
Input: I'd like to know its relative permittivity. The compound in question is CCCCO [butan-1-ol]
Output: 17.5

Input: I'd like to know its relative permittivity. The compound in question is CC(C)(C)O [2-methylpropan-2-ol]
Output: 12.23

Input: I'd like to know its relative permittivity. The compound in question is CCO [ethanol]
Output: 23.646

Next:
Input: I'd like to know its relative permittivity. The compound in question is CCCCC(CC)CO (centres undefined) [2-ethyl-1-hexanol]
Output: 7.354

---

# Assay notes: refractive index (Na D-line) (dimensionless); xn = mol fraction of the nth substance listed
# Condition notes: 298.2 K; 101.3 kPa; Liquid; x2 = 0.1
Measured parameter: refractive index
Numbers only.

Kindly give each listed record's refractive index.
1. CCCCC(CC)CO (centres undefined) [2-ethyl-1-hexanol] + CCCCO
2. C1CCCCC1 [cyclohexane] + CCCCO
3. CCCCC(CC)CO (centres undefined) [2-ethyl-1-hexanol] + CC(C)(C)O
4. C1CCCCC1 [cyclohexane] + CCO

Output:
1.4291
1.4191
1.4287
1.4235

---

# Assay notes: refractive index (Na D-line) (dimensionless)
# Condition notes: 298.2 K; 101.33 kPa; Liquid
± gives the expanded uncertainty stated by the source.
Measured parameter: refractive index

Input: I'd like to know its refractive index. The compound in question is CCO [ethanol]
Output: 1.3592 ± 0.001

Input: I'd like to know its refractive index. The compound in question is CC(C)(C)O [2-methylpropan-2-ol]
Output: 1.3864 ± 0.001

Kindly give each listed record's refractive index.
1. CCCCO [butan-1-ol]
2. CCCCC(CC)CO (centres undefined) [2-ethyl-1-hexanol]

Output:
1. 1.3988 ± 0.001
2. 1.4316 ± 0.001
